Test: AUClast in NSG mouse at 10 mg/kg, ip
Assay type: ADME, organism-based
Design: dose 10 mg/kg, route ip
Conditions: in vivo

compound	AUC(0-t)
CN(CCN(C)C(=O)O[C@@H]1CCC[C@]2(C1)OOC1(O2)C2CC3CC(C2)CC1C3)C(=O)Oc1ccc(N2C(=S)N(c3ccc(C#N)c(C(F)(F)F)c3)C(=O)C23CCC3)cc1 (stereo partly drawn)	81.1 µg·h/mL
CNC(=O)c1ccc(N2C(=S)N(c3cnc(C#N)c(C(F)(F)F)c3)C(=O)C23CCC3)cc1F [APALUTAMIDE]	4490 µg·h/mL
N#Cc1ncc(N2C(=O)C3(CCC3)N(c3ccc(OC4CCN(C(=O)O[C@@H]5CCC[C@]6(C5)OOC5(O6)C6CC7CC(C6)CC5C7)CC4)nc3)C2=S)cc1C(F)(F)F (stereo partly drawn)	158 µg·h/mL
